These measurements were taken from patent US20100113453A1.

Assay: Absorption into the blood following sublingual versus oral administration of D-cycloserine
Assay type: in vivo, Sprague-Dawley rats
Details: male, Sprague-Dawley, plasma; rat, oral, 15 mg/kg, 10 minutes elapsed; read-out: DCS plasma level
Excerpt: Subjects: 18 male, Sprague-Dawley rats (Charles River, Raleigh N.C.). Procedure: The rats were implanted with intravenous catheters using the methods of Thrivikraman et al., (“Jugular vein catheterization for repeated blood sampling in the unrestrained conscious rat” (2002) Brain Res. Brain Res. Protoc., 10(2), p. 84-94). Following two days of recovery, rats were lightly anesthetized with isofluorothane and given DCS either sublingually (n=10) or orally (n=8). […]
readout-type: concentration at 10 min (ng/mL)
Form entry: value (ng/mL) — number only.

Would you kindly share the measured concentration at 10 min for NC1CONC1=O (stereo not shown) ?
1600

###

Assay: Absorption into the blood following sublingual versus oral administration of D-cycloserine
Format: in vivo, Sprague-Dawley rats
Conditions: male, Sprague-Dawley, plasma; rat, oral, 15 mg/kg, 0 minutes (baseline before DCS administration); read-out: DCS plasma level
readout-type: concentration at 0 min (ng/mL)
Kindly provide the numeric value in ng/mL only, without the unit symbol.

# concentration at 0 min lookup, item NC1CONC1=O (stereo not shown) [DCS, 4-amino-1,2-oxazolidin-3-one]
0

###

Experiment: Absorption into the blood following sublingual versus oral administration of D-cycloserine
Assay type: in vivo, Sprague-Dawley rats
Conditions: male, Sprague-Dawley, plasma, other: sublingual; rat, sublingual, 15 mg/kg, 80 minutes elapsed; read-out: DCS plasma level
readout-type: concentration at 80 min

Reported concentration at 80 min, compound NC1CONC1=O (stereo not shown) : ____
5200 ng/mL

###

Test: Absorption into the blood following sublingual versus oral administration of D-cycloserine
Type: in vivo, Sprague-Dawley rats
Details: male, Sprague-Dawley, plasma; rat, oral, 15 mg/kg, 20 minutes elapsed; read-out: DCS plasma level
readout-type: concentration at 20 min (ng/mL)
Answer with a number only, understood to be in ng/mL.

Report concentration at 20 min for NC1CONC1=O (stereo not shown) please.
2300

###

Test: Absorption into the blood following sublingual versus oral administration of D-cycloserine
Format: in vivo, Sprague-Dawley rats
Conditions: male, Sprague-Dawley, plasma, other: sublingual; rat, sublingual, 15 mg/kg, 20 minutes elapsed; read-out: DCS plasma level
Source text: Subjects: 18 male, Sprague-Dawley rats (Charles River, Raleigh N.C.). Procedure: The rats were implanted with intravenous catheters using the methods of Thrivikraman et al., (“Jugular vein catheterization for repeated blood sampling in the unrestrained conscious rat” (2002) Brain Res. Brain Res. Protoc., 10(2), p. 84-94). Following two days of recovery, rats were lightly anesthetized with isofluorothane and given DCS either sublingually (n=10) or orally (n=8). […]
readout-type: concentration at 20 min (ng/mL)
Write the value in ng/mL as a bare number.

Entry NC1CONC1=O (stereo not shown) : reported concentration at 20 min = ?
1600

###

Assay: Absorption into the blood following sublingual versus oral administration of D-cycloserine
Assay type: in vivo, Sprague-Dawley rats
Settings: male, Sprague-Dawley, plasma; rat, oral, 15 mg/kg, 80 minutes elapsed; read-out: DCS plasma level
readout-type: concentration at 80 min (ng/mL)
Your answer is read as ng/mL, so omit the unit and give the number.

// query concentration at 80 min value for entry NC1CONC1=O (stereo not shown)
5400

###

Experiment: Absorption into the blood following sublingual versus oral administration of D-cycloserine
Assay type: in vivo, Sprague-Dawley rats
Settings: male, Sprague-Dawley, plasma, other: sublingual; rat, sublingual, 15 mg/kg, 10 minutes elapsed; read-out: DCS plasma level
readout-type: concentration at 10 min (ng/mL)
# value in ng/mL; strip the unit string

Name the reported concentration at 10 min value associated with the compound NC1CONC1=O (stereo not shown)
900

###

Test: Absorption into the blood following sublingual versus oral administration of D-cycloserine
Type: in vivo, Sprague-Dawley rats
Details: male, Sprague-Dawley, plasma, other: sublingual; rat, sublingual, 15 mg/kg, 40 minutes elapsed; read-out: DCS plasma level
readout-type: concentration at 40 min (ng/mL)
Return type: number; implicit unit ng/mL.

Entry NC1CONC1=O (stereo not shown) : reported concentration at 40 min = ?
4700
